B1: TPR t1 (parent)
chain: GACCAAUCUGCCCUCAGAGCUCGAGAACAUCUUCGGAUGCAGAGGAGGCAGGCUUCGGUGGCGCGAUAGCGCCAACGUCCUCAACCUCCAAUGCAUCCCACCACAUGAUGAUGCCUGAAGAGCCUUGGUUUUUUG

Variants of: B1
assay_info: polymerase ribozyme fitness, log enrichment relative to wild type (log ratio); higher = more active; in vitro selection for triplet polymerase activity
Assign y to entries whose polymerase ribozyme fitness (log ratio) meets or exceeds -3; assign n to the rest.

Examples from the recorded data:
>>> df
                   variant_label  qualitative_label
0                     U81G U129A                  n
1                     C86A G110U                  y
2  C8G C11G C53U C62U U81G C102A                  n
3                     G69U A111U                  y

hey, is polymerase ribozyme fitness (log ratio) for this one >= -3? A6C C11G C15U C102A G120A U133A
y

hey, is polymerase ribozyme fitness (log ratio) for this one >= -3? A41U G60A C80U
n
